Test system: S6K1 (Thr389) phosphorylation (mTORC1 activity) in wild-type (WT) 293T cells
testDetails: Inhibition of S6K1 (Thr389) phosphorylation in wild-type 293T cells (ELISA)
Assay type: cell-based, human
cond: Homo sapiens, HEK-293T, 2 h, wild-type 293T cells, 2 hours treatment
experimentalReadout: IC50 (nM)
Numbers only, in nM.

Provide the reported IC50 of each entry below, same order.
1. CO[C@@H]1C[C@H](C[C@@H](C)[C@@H]2CC[C@H](C)/C=C(\C)[C@@H](O)[C@@H](OC)C(=O)[C@H](C)C[C@H](C)/C=C/C=C/C=C(\C)C(NS(=O)(=O)c3cnoc3C)C[C@@H]3CC[C@@H](C)[C@@](O)(O3)C(=O)C(=O)N3CCCCC3C(=O)O2)CC[C@H]1O (some centres unmarked) [Compound 51]
2. COC1C(=O)[C@H](C)C[C@H](C)/C=C/C=C/C=C(\C)C(NS(=O)(=O)c2cccc(C)c2)C[C@@H]2CC[C@@H](C)[C@@](O)(O2)C(=O)C(=O)N2CCCC[C@H]2C(=O)OC([C@H](C)CC2CC[C@@H](O)C(OC)C2)CC[C@H](C)/C=C(\C)C1O (some centres unmarked) [Compound 72]

Response:
4.53
0.914
